Each recorded value in this set is attributed to ChEMBL document CHEMBL3875218.

# Target Under Test: Histone deacetylase 1 (Homo sapiens)
# Sequence (Q13547 whole entry): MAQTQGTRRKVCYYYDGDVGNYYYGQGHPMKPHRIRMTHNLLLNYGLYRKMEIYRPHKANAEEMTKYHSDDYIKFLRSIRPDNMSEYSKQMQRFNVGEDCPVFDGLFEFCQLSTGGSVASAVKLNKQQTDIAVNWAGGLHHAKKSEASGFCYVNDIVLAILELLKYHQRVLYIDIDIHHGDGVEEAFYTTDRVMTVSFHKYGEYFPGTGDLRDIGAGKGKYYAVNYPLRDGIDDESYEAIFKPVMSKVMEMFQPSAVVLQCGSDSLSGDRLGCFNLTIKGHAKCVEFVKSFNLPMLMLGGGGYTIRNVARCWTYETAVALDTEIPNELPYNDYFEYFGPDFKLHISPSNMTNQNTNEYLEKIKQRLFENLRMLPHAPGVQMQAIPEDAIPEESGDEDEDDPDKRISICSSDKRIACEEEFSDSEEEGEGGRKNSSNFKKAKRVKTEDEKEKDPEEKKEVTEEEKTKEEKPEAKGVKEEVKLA
pIC50: −log10 of the molar value.
Please use 1 whenever pIC50 is not below 6, and -1 whenever it is.

Some solved cases for reference:
- Record Smiles: "COc1ccc2c(c1)c(CC(=O)NCCCCCCCC(=O)NO)c(C)n2C(=O)c1ccc(Cl)cc1"
  Qualitative Label: -1
- Record Smiles: "Cc1ccc(-c2cc(C(=O)NCCCCCC(=O)NO)nn2-c2ccc(S(N)(=O)=O)cc2)cc1"
  Qualitative Label: 1
- Record Smiles: "Cc1ccc(-c2cc(C(=O)NCCCCCCC(=O)NO)nn2-c2ccc(S(C)(=O)=O)cc2)cc1"
  Qualitative Label: 1

In: Hi team, for "Cc1ccc(-c2cc(C(=O)NCCCCCCCC(=O)NO)nn2-c2ccc(S(N)(=O)=O)cc2)cc1" , is the recorded pIC50 at or above 6?
Out: 1

In: # check: pIC50 of "Cc1ccc(-c2cc(C(F)(F)F)nn2-c2ccc(S(=O)(=O)NCCCCCC(=O)NO)cc2)cc1" is greater than or equal to 6
Out: -1

In: Record "Cc1ccc(-c2cc(C(=O)NCCCCCCC(=O)NO)nn2-c2ccc(S(N)(=O)=O)cc2)cc1" ; criterion: pIC50 no lower than 6. Met?
Out: 1

In: In plain terms: is recorded pIC50 at least 6 for "COc1ccc2c(c1)c(CC(=O)NCCCCCC(=O)NO)c(C)n2C(=O)c1ccc(Cl)cc1" ?
Out: -1
